Kindly find below Ki information for UniProt:P35218 taken from the literature.
Sequence (P35218 whole entry): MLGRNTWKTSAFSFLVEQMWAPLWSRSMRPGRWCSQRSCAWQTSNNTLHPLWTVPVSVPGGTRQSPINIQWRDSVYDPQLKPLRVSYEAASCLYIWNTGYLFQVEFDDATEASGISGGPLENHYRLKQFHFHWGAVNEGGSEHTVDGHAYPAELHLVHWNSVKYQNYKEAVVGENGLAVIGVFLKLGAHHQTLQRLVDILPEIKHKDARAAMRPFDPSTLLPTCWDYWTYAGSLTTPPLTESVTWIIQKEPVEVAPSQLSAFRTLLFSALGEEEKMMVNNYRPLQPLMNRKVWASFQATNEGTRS
experimental-readout: Ki

In [3]: df
Out[3]:
                         structure_notation    assay_system  reported_measurement
0   O=C1C=CC[C@H](C[C@H](F)CCc2ccc(O)cc2)O1  UniProt:P35218               7130 nM
1  Nc1ccc(S(=O)(=O)NCc2ccc(S(N)(=O)=O)cc2)cc1  UniProt:P35218                176 nM
2                   O=C1NS(=O)(=O)c2ccccc21  UniProt:P35218              10100 nM
3           O=C(/C=C/c1ccc(O)cc1)OCc1ccccc1  UniProt:P35218                970 nM
4  CC(=O)O[C@H]1[C@@H](OC(C)=O)[C@@H](CO)O[C@@H]([Se]c2ccc(S(N)(=O)=O)c(N)c2)[C@@H]1OC(C)=O  UniProt:P35218                236 nM
5    CC1(C)OB(c2ccc(NS(N)(=O)=O)cc2)OC1(C)C  UniProt:P35218                 87 nM
6                         O=C(O)c1ccc(O)cc1  UniProt:P35218               9200 nM
